# measurement-description: reduced absorbance of E. coli cultures with phage – HTS, RecBCD inhibitor project, primary screen (AID 651602)
# run-conditions: growth absorbance, at 11.9 µM, stronger effect = higher value
In all, about 360,000 compounds went through this assay and about 950 (0.26%) were called active. The full list was thinned out, with actives kept by preference.
Quick reference for inhibition among some compounds
Hi! Could you send only the number? It should be in %, unit omitted.

*Q* # get_value(readout='inhibition', item= O=C1[C@@H](c2ccccc2)[C@@H](c2ccccc2)N1c1ccccc1 )
*A* 1.64

----------
# measurement-description: reduced absorbance of E. coli cultures with phage – HTS, RecBCD inhibitor project, primary screen (AID 651602)
# run-conditions: growth absorbance, at 11.9 µM, stronger effect = higher value
Among all 360,000 compounds or so, about 950 (0.26%) were called active. The full list was thinned out, with actives kept by preference.
Classification field: enter yes (1) for inhibition values not below 3%, no (0) for values below it.

COC(=O)[C@]12C[C@H](CC(=O)NCCC(C)C)C(=O)N(CCc3ccc(OC)c(OC)c3)C1=C[C@H](C(C)(C)C)O[C@@H]2C
yes (1)
CC(=O)C1=C(C)N(Cc2ccc(Cl)cc2)C(=S)NC1c1ccc(F)cc1 (stereo not given)
no (0)
C=CCN1C(=O)N(Cc2ccccc2)c2ccccc2S1(=O)=O
no (0)
CC(=O)C1=C(C)N(Cc2ccccc2)C(=S)NC1c1cccc(Br)c1 (stereo not given)
no (0)

In the following, a different compound is considered.
*Q* I'd appreciate it if you could say whether CN1CCCc2nc(-c3ccccc3)ccc21 has inhibition at least equal to 3%.
*A* no (0)

----------
# measurement-description: reduced absorbance of E. coli cultures with phage – HTS, RecBCD inhibitor project, primary screen (AID 651602)
# run-conditions: growth absorbance, at 11.9 µM, stronger effect = higher value
Screen size: about 360,000 compounds; about 950 (0.26%) were called active. This excerpt belongs to a sample that is enriched for actives.
Quick reference for inhibition among some compounds
Hi! Could you send only the number? It should be in %, unit omitted.

O=C(CC(O)(C(F)(F)F)C(F)(F)F)Nc1ccc(Cl)c(Cl)c1
15.6

*Q* # get_value(readout='inhibition', item= CC(C)=CC(=O)Nc1nnc(-c2ccc(F)cc2)s1 )
*A* 1.99

*Q* # get_value(readout='inhibition', item= O=C(Nc1ccccc1)Nc1nnc(COc2ccccc2F)s1 )
*A* 0.84

----------
# measurement-description: reduced absorbance of E. coli cultures with phage – HTS, RecBCD inhibitor project, primary screen (AID 651602)
# run-conditions: growth absorbance, at 11.9 µM, stronger effect = higher value
Among all 360,000 compounds or so, about 950 (0.26%) were called active. For the sample, actives were picked, then their nearest neighbours and some compounds at random.
Quick reference for inhibition among some molecules
Hi! Could you send only the number? It should be in %, unit omitted.

O=C(NCc1ccccc1)[C@@H]1CCCN1C(=O)[C@@H](NS(=O)(=O)c1ccc(F)cc1F)C1CCCCC1
3.12
CCn1c(=O)cc(SCC(=O)NCc2ccc3c(c2)OCO3)c2ccccc21
1.95
O=C(NCc1ccccc1)[C@@H]1CCCN1C(=O)[C@H]1CCCN1C(=O)c1cccc(Cl)c1
1.16
CC1=C(C/C=C(\C)CCCC(C)CCCC(C)CCCC(C)C)C(=O)c2ccccc2C1=O (stereo not drawn)
99.2
COc1ccc(-c2ccccc2C2Cc3nnccc3CN2C(=O)Nc2ccccc2)cc1 (stereo not drawn)
3.48
CCCCCCCCN1C(=O)[C@@H](CC(=O)NCc2ccccc2)C[C@@]2(C(=O)OC)C1=C[C@H](C(C)(C)C)O[C@@H]2C
1.01

*Q* # get_value(readout='inhibition', item= C=CC[C@]12C[C@@]3(O[C@H](c4ccc(C(F)(F)F)cc4)N=C3C[C@H](c3ccc(OC)cc3)[C@H]1C)N(C1CCN(Cc3ccccc3)CC1)C2=O )
*A* 6.28

*Q* # get_value(readout='inhibition', item= COC(=O)[C@]12C[C@H](CC(=O)NCc3ccc(OC)c(OC)c3)C(=O)N(Cc3ccccc3)C1=C[C@H](C(C)C)O[C@@H]2C1CC1 )
*A* 0.85

----------
# measurement-description: reduced absorbance of E. coli cultures with phage – HTS, RecBCD inhibitor project, primary screen (AID 651602)
# run-conditions: growth absorbance, at 11.9 µM, stronger effect = higher value
The campaign covered roughly 360,000 compounds. About 950 (0.26%) were called active. The sample as a whole holds a higher share of actives than the screen did.
Quick reference for inhibition among some molecules

Nc1ccn([C@@H]2O[C@H](C(=O)N[C@H]3CCCCNC3=O)[C@@H](O)[C@H]2O)c(=O)n1
1.72% (inactive)
Oc1c(CN2CCN(c3ccc(F)cc3)CC2)cc(Cl)c2cccnc12
13% (active)
COC(=O)c1c(-c2ccc(OC)cc2)c2c(c3c4cc(OC)ccc4n(S(=O)(=O)c4ccc(F)cc4)c13)C(=O)N(C)C2
2.25% (inactive)
COc1ccccc1CCn1cnc(-c2ccccc2)c1C(C)C
1.47% (inactive)
CC(C)[C@@H](C)/C=C/[C@@H](C)[C@H]1CC[C@@H]2[C@]1(C)CCC1[C@]23C=C[C@]2(C[C@@H](O)CC[C@]12C)N(c1ccc([N+](=O)[O-])cn1)O3 (some centres undefined)
-0.39% (inactive)

*Q* # get_value(readout='inhibition', item= O=S1(=O)c2ccc(Br)cc2-n2nncc2CN1Cc1cccc(Cl)c1 )
*A* -0.4% (inactive)

*Q* # get_value(readout='inhibition', item= Nc1ncnc2c1ncn2C1OC(CO)CC1O (centres undefined) )
*A* 3.4% (inactive)

----------
# measurement-description: reduced absorbance of E. coli cultures with phage – HTS, RecBCD inhibitor project, primary screen (AID 651602)
# run-conditions: growth absorbance, at 11.9 µM
The campaign covered roughly 360,000 compounds. About 950 (0.26%) were called active. No stated cut-off is given here; in the data, active means inhibition above about 11%; inactive means the rest. For the sample, actives were picked, then their nearest neighbours and some compounds at random.
Can you answer with just one of these options? active, inactive

# count of solved cases: 3
O=C(Nc1ccc(F)cc1)C1CCN(C(=O)c2ccc([N+](=O)[O-])cc2)CC1
inactive
Cc1ccccc1C(=O)N[C@H](C(=O)N1CCC[C@H]1C(=O)NCc1ccccc1)C(C)C
inactive
O=C(/C=C/c1ccc(F)cc1)NC(=S)NNC(=O)c1cccnc1
inactive

*Q* Given O=C(/C=C/c1ccc([N+](=O)[O-])o1)NNC(=O)c1ccc(F)cc1 , state the outcome it received in this test.
*A* active

----------
# measurement-description: reduced absorbance of E. coli cultures with phage – HTS, RecBCD inhibitor project, primary screen (AID 651602)
# run-conditions: growth absorbance, at 11.9 µM
In all, about 360,000 compounds went through this assay and about 950 (0.26%) were called active. Rule as the data show it: active = inhibition above about 11%; inactive = the rest. This excerpt belongs to a sample that is enriched for actives.
Can you answer with just one of these options? active, inactive

# count of solved cases: 3
Cc1ccc(C)c(CN2CCC(CNC(=O)C3CCCN(c4ncnc5c4nc4n5CCCCC4)C3)CC2)c1 (stereo not given)
inactive
COC(=O)C1=C(C(=O)OC)C2C=C(C(C)C)C1C(=O)C2(C)O (stereo not given)
inactive
COc1cccc(/C=N/Nc2ncc(C(F)(F)F)cc2Cl)c1O
active

In the following, a different compound is considered.
*Q* Given CCCCC(=O)NC(c1ccc(OC)c(OC)c1)c1ccc2cccnc2c1O (stereo not given) , state the outcome it received in this test.
*A* active

----------
# measurement-description: reduced absorbance of E. coli cultures with phage – HTS, RecBCD inhibitor project, primary screen (AID 651602)
# run-conditions: growth absorbance, at 11.9 µM, stronger effect = higher value
About 950 (0.26%) of roughly 360,000 compounds were called active. The full list was thinned out, with actives kept by preference.
Quick reference for inhibition among some compounds
Hi! Could you send only the number? It should be in %, unit omitted.

Known results for compounds:
Cc1ccc2nc(-c3ccc(CN4CCC(n5cc(-c6ccccc6)[nH]c5=O)CC4)cc3)c(-c3ccccc3)nc2c1
2.06
Clc1cccc2c1C1CC2CCN1Cc1ccccc1 (configuration not stated)
2.92
CN(C)C(=O)N1CCN(C(=O)[C@@H](Cc2ccccc2)NC(=O)[C@H]2O[C@@H](n3ccc(N)nc3=O)[C@H](O)[C@@H]2O)CC1
1.56

*Q* # get_value(readout='inhibition', item= CCOC(=O)C1CSCCS(=O)(=O)N1Cc1ccc(Cl)cc1 (configuration not stated) )
*A* 0.55

*Q* # get_value(readout='inhibition', item= COC(=O)c1ccc(CN2C(=O)[C@]3(OCCC=C[C@H]3C)c3c(Br)cccc32)cc1 )
*A* 1.58

*Q* # get_value(readout='inhibition', item= O=C(COc1cc(Cl)c(Cl)cc1Cl)NCCc1ccccn1 )
*A* -0.15

*Q* # get_value(readout='inhibition', item= Cc1ccc(N)cc1CN1CCN(c2ncc(Cc3ccccc3)cn2)CC1 )
*A* 1.25
